What perturbation Mahalanobis distance was measured for each of the following?
test system: MCF10A; test: perturbation Mahalanobis distance of morphological profile vs DMSO controls (Mahalanobis distance (SD units)); higher = stronger morphological change, active = 7 or more; conditions: screen batch: Batch1_Mahalanobis_Distance; 72 h
Write the value as a bare number.

input: Entry O=C(O)CCCc1ccc(N(CCCl)CCCl)cc1 [Chlorambucil] (8.1 µM) has what perturbation Mahalanobis distance?
output: 2.75

input: Dear colleague, I am looking for the recorded perturbation Mahalanobis distance of the following compound: NCC(CC(=O)O)c1ccc(Cl)cc1 (centres undefined) [Baclofen] (4.7 µM)
output: 1.93

input: # input compound: C[C@]12CC[C@H]3[C@@H](CC[C@@]45O[C@@H]4C(O)=C(C#N)C[C@]35C)[C@@H]1CC[C@@H]2O [Trilostane] (308.7 µM) ; wanted: its perturbation Mahalanobis distance
output: 3.36

input: Can you look up the measured perturbation Mahalanobis distance of CN(C)C(=O)Oc1ccc[n+](C)c1 [Pyridostigmine Bromide] (5.5 µM) for me?
output: 2.83

input: What measured perturbation Mahalanobis distance goes with CC[C@@H](CO)NC(=O)[C@@H]1C=C2c3cccc4[nH]cc(c34)C[C@H]2N(C)C1 [Methylergonovine] (44 µM) ?
output: 2.29

input: Which perturbation Mahalanobis distance value belongs to C[C@]12Cc3cn[nH]c3C[C@@H]1CC[C@@H]1[C@@H]2CC[C@@]2(C)[C@H]1CC[C@]2(C)O [Stanozolol] (62.7 µM) ?
output: 2.14

input: # lookup: perturbation Mahalanobis distance of CCC(C)C(C)(COC(N)=O)COC(N)=O (centres undefined) [Mebutamate] (144.2 µM)
output: 2.17

input: What does the record list as perturbation Mahalanobis distance for NC(=O)CS(=O)C(c1ccccc1)c1ccccc1 (centres undefined) [Armodafinil] (27.1 µM) ?
output: 3.56

input: Can you look up the measured perturbation Mahalanobis distance of COc1cc2c(cc1OC)C1CC(=O)C(CC(C)C)CN1CC2 (centres undefined) [Tetrabenazine] (10 µM) for me?
output: 4.2

====

system: MCF10A; experiment: perturbation Mahalanobis distance of morphological profile vs DMSO controls (Mahalanobis distance (SD units)); higher = stronger morphological change, active = 7 or more; details: screen batch: Batch2_Mahalanobis_Distance; 72 h
Choose one outcome from this list and give only that: active, inactive

input: Identify the outcome logged in this assay for the compound shown: COC[C@@H](NC(C)=O)C(=O)NCc1ccccc1 [Lacosamide] (49.9 µM)
output: inactive

input: What did this assay record as the result for O=C(O)CCCc1ccc(N(CCCl)CCCl)cc1 [Chlorambucil] (8.1 µM) ?
output: active

input: Would you mind telling me which call this test gave CN(C)C(=O)Oc1ccc[n+](C)c1 [Pyridostigmine Bromide] (5.5 µM) ?
output: inactive

input: // outcome(item) with item = O=[N+]([O-])O[C@H]1CO[C@H]2[C@@H]1OC[C@H]2O[N+](=O)[O-] [Isosorbide Dinitrate] (0.13 µM)
output: inactive

====

test system: MCF10A; assay: perturbation Mahalanobis distance of morphological profile vs DMSO controls (Mahalanobis distance (SD units)); higher = stronger morphological change, active = 7 or more; details: screen batch: Batch2_Mahalanobis_Distance; 72 h
recorded metric: perturbation Mahalanobis distance
Reply: number alone, nothing else.

input: Need perturbation Mahalanobis distance of C[C@]12Cc3cn[nH]c3C[C@@H]1CC[C@@H]1[C@@H]2CC[C@@]2(C)[C@H]1CC[C@]2(C)O [Stanozolol] (62.7 µM) , thanks.
output: 3.12

input: // perturbation Mahalanobis distance lookup, key: Cc1cccc([C@H](C)c2cnc[nH]2)c1C [Dexmedetomidine] (42 µM)
output: 2.42

input: Please look up its perturbation Mahalanobis distance: CC[C@@H](CO)NC(=O)[C@@H]1C=C2c3cccc4[nH]cc(c34)C[C@H]2N(C)C1 [Methylergonovine] (44 µM)
output: 3.37

input: Entry under review: C[C@]12CC[C@H]3[C@@H](CCC4=CC(=O)CC[C@@]43C)[C@@H]1CC[C@@H]2O [Testosterone] (0.17 µM) . Reported perturbation Mahalanobis distance?
output: 3.14

input: Please look up its perturbation Mahalanobis distance: NC(=O)CS(=O)C(c1ccccc1)c1ccccc1 (stereo not drawn) [Armodafinil] (27.1 µM)
output: 2.45

input: Item CCN(C(C)=O)c1cccc(-c2ccnc3c(C#N)cnn23)c1 [Zaleplon] (1.6 µM) has what recorded perturbation Mahalanobis distance?
output: 3.38

input: Please give the measured perturbation Mahalanobis distance for this compound: C[C@]12CC[C@H]3[C@@H](CC[C@@]45O[C@@H]4C(O)=C(C#N)C[C@]35C)[C@@H]1CC[C@@H]2O [Trilostane] (308.7 µM)
output: 2.45

input: Query: perturbation Mahalanobis distance; subject: NCC(CC(=O)O)c1ccc(Cl)cc1 (stereo not drawn) [Baclofen] (4.7 µM)
output: 1.48

====

Answer each item with its documented perturbation Mahalanobis distance.
system: MCF10A; experiment: perturbation Mahalanobis distance of morphological profile vs DMSO controls (Mahalanobis distance (SD units)); higher = stronger morphological change, active = 7 or more; settings: screen batch: Batch1_Mahalanobis_Distance; 72 h
Reply with just the number.

input: I have this compound here, CC(C)(O)C(=O)Nc1ccc([N+](=O)[O-])c(C(F)(F)F)c1 [Hydroxyflutamide] (27.1 µM) , and I need its recorded perturbation Mahalanobis distance.
output: 5.03

input: Fill in: perturbation Mahalanobis distance of CCN(C(C)=O)c1cccc(-c2ccnc3c(C#N)cnn23)c1 [Zaleplon] (1.6 µM) is ___
output: 2.43

input: Given CN1C[C@H](C(=O)N[C@]2(C)O[C@@]3(O)[C@@H]4CCCN4C(=O)[C@H](Cc4ccccc4)N3C2=O)C[C@@H]2c3cccc4[nH]cc(c34)C[C@H]21 [Dihydroergotamine] (74 µM) , state its recorded perturbation Mahalanobis distance.
output: 2.63

input: perturbation Mahalanobis distance for NC1CC1c1ccccc1 (centres undefined) [Tranylcypromine] (7.5 µM) ?
output: 2.27

The reported measurements were obtained from the supplement of paper PMC6853941.
